- MEASURED TARGET: Hypoxia-inducible factor 1-alpha (Homo sapiens)
- ASSAY COMMENT: activators of HIF1alpha nuclear accumulation, confirmation, imaging, fluorescence, U2OS GFP-HIF1alpha (AID 434951)
- EXPERIMENTAL CONTEXT: U2OS GFP-HIF1alpha nuclear intensity, high-content imaging
Calls of active or inactive are those of the source.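 The calls were made as follows: active = a fitted half-maximal concentration EC50 for the rise in nuclear signal no higher than ten times the top dose tested; inconclusive = flat fit with activity between 30% and 70%, or unusable fit; inactive = EC50 beyond ten times the top dose.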
Entry note: the call must match one of TRUE for active, FALSE for inactive

Cc1cc2ccc3ccccc3c2cc1CN(C)C : FALSE
COc1ccc2nc(C)cc(SCC(=O)N/N=C/c3ccc(O)cc3O)c2c1 : TRUE
CCOC(=O)c1c(C)[nH]c(C)c1S(=O)(=O)N1c2ccccc2CC1C (configuration not stated) : FALSE
CCCCn1c(/C=N/Nc2nc3ccccc3[nH]2)nc2ccccc21 : TRUE
O=[N+]([O-])c1ccc(N=Cc2ccc(Br)c([N+](=O)[O-])c2)cc1 : TRUE
COc1ccc(NC(=O)Nc2ccc(CC(=O)O)cc2)cc1 : FALSE
CCc1cc(C(=O)N/N=C/c2ccc(O)cc2O)c2ccccc2n1 : TRUE
CNNC(=O)C(C)NC(=O)c1ccc(Br)cc1 (configuration not stated) : FALSE

Moving on to the next compound.
Recorded call for "Cc1cc(=O)oc2cc(OCC(=O)N3CCN(c4ccc(F)cc4)CC3)ccc12" ? FALSE

----------
- MEASURED TARGET: Hypoxia-inducible factor 1-alpha (Homo sapiens) (UniProt Q16665)
- Sequence (Q16665 whole entry, looked up): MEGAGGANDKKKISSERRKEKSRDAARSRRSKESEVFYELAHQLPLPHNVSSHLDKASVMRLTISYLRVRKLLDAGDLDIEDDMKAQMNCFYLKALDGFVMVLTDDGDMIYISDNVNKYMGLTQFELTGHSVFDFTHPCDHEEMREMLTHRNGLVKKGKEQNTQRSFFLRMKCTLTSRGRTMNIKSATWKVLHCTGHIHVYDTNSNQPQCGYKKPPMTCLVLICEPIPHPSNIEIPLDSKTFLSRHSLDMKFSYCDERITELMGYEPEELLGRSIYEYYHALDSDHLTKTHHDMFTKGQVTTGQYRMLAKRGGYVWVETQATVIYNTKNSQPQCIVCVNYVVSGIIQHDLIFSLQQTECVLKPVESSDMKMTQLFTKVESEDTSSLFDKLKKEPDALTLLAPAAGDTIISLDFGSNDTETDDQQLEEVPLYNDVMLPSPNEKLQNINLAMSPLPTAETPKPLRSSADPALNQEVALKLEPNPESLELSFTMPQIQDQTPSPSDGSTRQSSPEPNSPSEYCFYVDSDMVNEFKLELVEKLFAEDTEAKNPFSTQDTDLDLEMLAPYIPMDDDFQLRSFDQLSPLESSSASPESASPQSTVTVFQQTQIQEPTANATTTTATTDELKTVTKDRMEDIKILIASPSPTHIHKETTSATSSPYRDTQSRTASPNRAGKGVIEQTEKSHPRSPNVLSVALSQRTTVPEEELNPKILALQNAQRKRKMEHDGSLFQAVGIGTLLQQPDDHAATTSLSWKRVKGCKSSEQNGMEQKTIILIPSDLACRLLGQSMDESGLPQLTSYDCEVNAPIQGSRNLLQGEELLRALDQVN
- ASSAY COMMENT: activators of HIF1alpha nuclear accumulation, confirmation, imaging, fluorescence, U2OS GFP-HIF1alpha (AID 434951)
- EXPERIMENTAL CONTEXT: U2OS GFP-HIF1alpha nuclear intensity, high-content imaging
Calls of active or inactive are those of the source.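 The calls were made as follows: active = a fitted half-maximal concentration EC50 for the rise in nuclear signal no higher than ten times the top dose tested; inconclusive = flat fit with activity between 30% and 70%, or unusable fit; inactive = EC50 beyond ten times the top dose.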
Choose one outcome from this list and give only that: True = active, False = inactive

Reference set (2 entries):
CCOC(=O)C1CCCN(C(=O)c2ccc3oc(CCc4ccccc4)nc3c2)C1 (stereo not given) : False
Cn1c(=O)cc(C(=O)N/N=C/c2ccc(F)cc2)[nH]c1=O : False

# outcome recorded in this test, key = "Cc1cc([N+](=O)[O-])nn1Cc1ccc(C(=O)N/N=C/c2ccc(O)cc2O)cc1" True

Name the outcome recorded for "CCOc1ccccc1N1CCN(C(=S)NC(=O)C23CC4CC(CC(C4)C2)C3)CC1" in the assay. False

Assay result, entry COc1ccc(C(=O)C2CCCN(C(=O)C3CCOCC3)C2)cc1OC (stereo not given) — outcome? False

----------
- MEASURED TARGET: Hypoxia-inducible factor 1-alpha (Homo sapiens) (UniProt Q16665)
- ASSAY COMMENT: activators of HIF1alpha nuclear accumulation, confirmation, imaging, fluorescence, U2OS GFP-HIF1alpha (AID 434951)
- EXPERIMENTAL CONTEXT: U2OS GFP-HIF1alpha nuclear intensity, high-content imaging
Activity calls are given as the source filed them.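 How the source made its calls: active means a fitted half-maximal concentration EC50 for the rise in nuclear signal no higher than ten times the top dose tested; inconclusive means flat fit with activity between 30% and 70%, or unusable fit; inactive means EC50 beyond ten times the top dose.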
# maps each entry to its EC50

O=S(=O)(CCSc1nc2ccccc2s1)c1nc2ccccc2s1 : > 35 µM (inactive)
Cc1nn(C(=O)c2cccnc2)c(C)c1Sc1ccccc1 : > 35 µM (inactive)
Cc1onc(-c2ccccc2)c1NC(=O)N(Cc1ccccc1)C(C)C : > 35 µM (inactive)
COc1ccccc1/C=C/C(=O)c1ccccc1 : > 35 µM (inactive)
CC(NC(=O)C12CC3CC(CC(O)(C3)C1)C2)c1ccc(Cl)cc1Cl (configuration not stated) : > 35 µM (inactive)

Input "C=C(C)Cn1c(CCNC(=O)C(C)C)nc2ccccc21" , output reported EC50. > 35 µM (inactive)

Report EC50 for "Cc1ccc(NC(=O)N2CCC(NC(=O)c3cccc(C)c3)CC2)cc1" > 35 µM (inactive)

Given the compound "O=C(O)c1ccc(N2C(=O)CSC2=S)cc1" , write its reported EC50. > 35 µM (inactive)
